# Target: Vascular endothelial growth factor receptor 3 (Homo sapiens, UniProt P35916)
# Sequence (P35916 whole entry): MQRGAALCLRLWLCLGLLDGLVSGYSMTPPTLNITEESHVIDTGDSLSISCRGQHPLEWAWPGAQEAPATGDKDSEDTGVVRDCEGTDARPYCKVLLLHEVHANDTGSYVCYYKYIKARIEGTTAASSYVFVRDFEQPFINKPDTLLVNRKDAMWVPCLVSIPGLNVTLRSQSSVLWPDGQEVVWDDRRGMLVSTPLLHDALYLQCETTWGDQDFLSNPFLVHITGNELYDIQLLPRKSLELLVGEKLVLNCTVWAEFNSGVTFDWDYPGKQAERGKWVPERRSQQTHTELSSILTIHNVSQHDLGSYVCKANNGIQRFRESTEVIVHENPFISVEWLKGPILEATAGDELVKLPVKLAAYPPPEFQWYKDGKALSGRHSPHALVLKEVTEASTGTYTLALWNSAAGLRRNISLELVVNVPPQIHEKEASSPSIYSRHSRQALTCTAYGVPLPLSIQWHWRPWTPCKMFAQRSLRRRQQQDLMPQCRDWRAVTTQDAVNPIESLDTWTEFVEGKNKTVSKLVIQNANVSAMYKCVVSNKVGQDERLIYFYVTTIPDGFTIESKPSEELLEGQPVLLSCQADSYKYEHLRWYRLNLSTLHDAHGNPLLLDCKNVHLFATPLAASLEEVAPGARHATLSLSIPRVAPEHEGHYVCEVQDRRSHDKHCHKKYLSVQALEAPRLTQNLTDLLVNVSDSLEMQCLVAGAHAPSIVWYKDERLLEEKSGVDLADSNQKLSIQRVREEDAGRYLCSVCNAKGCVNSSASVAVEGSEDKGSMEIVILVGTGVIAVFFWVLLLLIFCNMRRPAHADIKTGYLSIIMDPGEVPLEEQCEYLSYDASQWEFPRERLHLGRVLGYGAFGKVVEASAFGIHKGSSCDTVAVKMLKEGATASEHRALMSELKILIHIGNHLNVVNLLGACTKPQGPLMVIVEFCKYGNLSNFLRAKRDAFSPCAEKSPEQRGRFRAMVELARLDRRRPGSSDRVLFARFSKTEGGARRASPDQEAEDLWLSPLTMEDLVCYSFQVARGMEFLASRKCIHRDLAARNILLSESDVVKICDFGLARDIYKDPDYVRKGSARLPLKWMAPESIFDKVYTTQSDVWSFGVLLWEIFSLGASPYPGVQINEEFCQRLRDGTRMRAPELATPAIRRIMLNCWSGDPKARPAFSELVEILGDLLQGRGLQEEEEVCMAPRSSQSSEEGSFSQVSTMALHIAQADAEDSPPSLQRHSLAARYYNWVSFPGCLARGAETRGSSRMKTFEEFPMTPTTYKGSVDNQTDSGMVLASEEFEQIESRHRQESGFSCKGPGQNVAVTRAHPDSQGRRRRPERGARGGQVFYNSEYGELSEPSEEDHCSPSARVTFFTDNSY
# Protocol Description: Inhibition of FLT-4 (unknown origin) using poly (Glu, Tyr)4:1 as substrate in presence of ATP measured after 30 mins by HTRF assay
Measured Property: IC50

# Input Smiles, Measured Property, Experimental Value
rows = [
    ("COCC/C(=N\\S(=O)(=O)Cc1ccc(Cl)cc1)Nc1ccc(Oc2ccnc3cc(OCCCN4CCOCC4)c(OC)cc23)c(F)c1", "IC50", "0.358 µM"),
]

====

# Target: UniProtKB P00533
# Sequence (P00533 whole entry): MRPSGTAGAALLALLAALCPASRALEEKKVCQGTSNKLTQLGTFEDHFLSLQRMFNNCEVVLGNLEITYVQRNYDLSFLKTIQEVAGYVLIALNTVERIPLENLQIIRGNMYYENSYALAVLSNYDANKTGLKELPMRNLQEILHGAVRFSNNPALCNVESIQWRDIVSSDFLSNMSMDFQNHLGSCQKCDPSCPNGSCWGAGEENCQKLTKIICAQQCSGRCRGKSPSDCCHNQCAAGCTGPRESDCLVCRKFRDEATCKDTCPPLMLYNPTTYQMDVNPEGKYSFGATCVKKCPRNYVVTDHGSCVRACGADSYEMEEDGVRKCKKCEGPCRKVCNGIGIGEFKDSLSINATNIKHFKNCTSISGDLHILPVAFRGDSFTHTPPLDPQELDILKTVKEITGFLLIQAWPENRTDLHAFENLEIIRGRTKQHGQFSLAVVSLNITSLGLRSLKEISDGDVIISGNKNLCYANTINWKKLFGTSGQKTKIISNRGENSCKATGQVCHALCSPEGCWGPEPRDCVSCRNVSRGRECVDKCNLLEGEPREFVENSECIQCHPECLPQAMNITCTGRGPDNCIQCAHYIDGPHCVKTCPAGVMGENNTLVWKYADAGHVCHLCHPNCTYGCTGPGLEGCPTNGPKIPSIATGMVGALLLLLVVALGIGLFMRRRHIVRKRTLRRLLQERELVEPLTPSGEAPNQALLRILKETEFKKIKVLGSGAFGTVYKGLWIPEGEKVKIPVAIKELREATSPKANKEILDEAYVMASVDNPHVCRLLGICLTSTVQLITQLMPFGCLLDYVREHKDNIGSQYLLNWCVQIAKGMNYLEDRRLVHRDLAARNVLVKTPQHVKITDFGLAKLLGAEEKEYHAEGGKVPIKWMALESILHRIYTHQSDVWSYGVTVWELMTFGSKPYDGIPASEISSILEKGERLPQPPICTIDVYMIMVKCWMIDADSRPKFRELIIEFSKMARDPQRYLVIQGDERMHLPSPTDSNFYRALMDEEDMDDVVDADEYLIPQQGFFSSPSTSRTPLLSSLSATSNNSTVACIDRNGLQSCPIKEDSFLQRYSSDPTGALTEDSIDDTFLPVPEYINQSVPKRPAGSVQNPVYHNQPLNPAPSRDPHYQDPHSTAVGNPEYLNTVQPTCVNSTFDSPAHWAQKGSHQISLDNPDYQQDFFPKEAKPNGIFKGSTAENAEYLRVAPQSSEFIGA
pIC50: −log10 of the molar value.

# Input Smiles, Target, pIC50
rows = [
    ("COCC/C(=N\\S(=O)(=O)Cc1ccc(Cl)cc1)Nc1ccc(Oc2ccnc3cc(OCCCN4CCOCC4)c(OC)cc23)c(F)c1", "UniProtKB P00533", "< 5.00"),
]

====

# Protocol Description: Toxicity in Balb/c mouse assessed as survival rate at 400 mg/kg, ip measured after 15 days
# Type: organism-based
# Protocol Conditions: in vivo, time 15 day

# Input Smiles, survival at 360 h / %
data = [
    ("COCC/C(=N\\S(=O)(=O)Cc1ccc(Cl)cc1)Nc1ccc(Oc2ccnc3cc(OCCCN4CCOCC4)c(OC)cc23)c(F)c1", 50),
]
